- Test system: FB
- ASSAY_REMARKS: Euclidean distance of Cell Painting phenotypic profile (signed KS, 77 features) to DMSO centroid (dimensionless distance); 5 or 10 uM (library dependent); higher = stronger phenotypic change vs DMSO (phenoactivity)
- CONDITION: 48 h
QUANTITY_MEASURED: Euclidean distance
// keep it numeric: no unit symbol after the value

Q: Dear colleague, I am looking for the recorded Euclidean distance of the following molecule: CNC(=O)c1cc(Oc2ccc(NC(=O)Nc3cc(C(C)(C)C)nn3-c3ccc4ncccc4c3)c(F)c2)ccn1 [DCC-2036 (Rebastinib)]
Ans: 2.57

Q: Recorded Euclidean distance of N[C@@H]1CONC1=O , please.
Ans: 0.939

Q: Return reported Euclidean distance; argument: CC(=O)OCC1=C(C(=O)O)N2C(=O)[C@@H](NC(=O)CSC(=NC(C)C)NC(C)C)[C@H]2SC1
Ans: 0.888

Q: Tell me the measured Euclidean distance of Cc1cc2ncnn2cc1Nc1ncc2c(n1)n(C1CCOCC1)c(=O)n2C , please.
Ans: 1.79

====

- Test system: HEPG2
- ASSAY_REMARKS: Euclidean distance of Cell Painting phenotypic profile (signed KS, 77 features) to DMSO centroid (dimensionless distance); 5 or 10 uM (library dependent); higher = stronger phenotypic change vs DMSO (phenoactivity)
- CONDITION: 48 h
Where a name gives a salt, the structure may show the parent alone.
Outcome: 1 for Euclidean distance of at least 2; -1 for anything lower.

Q: Please check the record Cc1onc(-c2ccccc2)c1C(=O)N[C@@H]1C(=O)N2[C@@H]1SC(C)(C)[C@@H]2C(=O)O [Oxacillin sodium monohydrate] and state if its Euclidean distance is at or above 2.
Ans: -1

Q: Is Euclidean distance at least 2? Consider CC(C)(CO)[C@@H](O)C(=O)NCCCO
Ans: -1

Q: State whether the measured Euclidean distance reaches 2, counting equality as reaching it, for CC1(C)S[C@@H]2[C@H](NC(=O)[C@H](NC(=O)N3CCNC3=O)c3ccccc3)C(=O)N2[C@H]1C(=O)O [Azlocillin sodium salt]
Ans: -1

Q: hey, is Euclidean distance for this one >= 2? C[C@@H](c1nc(-c2ccc(C#N)cc2)cs1)[C@](O)(Cn1cncn1)c1cc(F)ccc1F
Ans: -1

Q: Is reported Euclidean distance greater than or equal to 2 here: Oc1ccc2c(c1)CC[C@H](c1ccccc1)[C@@H]2c1ccc(OCCN2CCCC2)cc1 [Lasofoxifene Tartrate]
Ans: 1

Q: Dear colleague, could you confirm whether COc1cc2c3cc1Oc1c(OC)c(OC)cc4c1[C@@H](Cc1ccc(O)c(c1)Oc1ccc(cc1)C[C@@H]3N(C)CC2)N(C)CC4 has Euclidean distance at or above 2?
Ans: 1

Q: Decide: is the reported value of Euclidean distance for CN1CCN(C2=Nc3ccccc3Oc3ccc(Cl)cc32)CC1 [Loxapine Succinate] equal to or greater than 2?
Ans: -1

====

- Test system: A549
- ASSAY_REMARKS: Euclidean distance of Cell Painting phenotypic profile (signed KS, 77 features) to DMSO centroid (dimensionless distance); 5 or 10 uM (library dependent); higher = stronger phenotypic change vs DMSO (phenoactivity)
- CONDITION: 48 h
Counter-ions that a name gives are not always drawn.
QUANTITY_MEASURED: Euclidean distance
Number only, please.

Q: Reported Euclidean distance for CNC(=O)c1cc(Oc2ccc(NC(=O)Nc3ccc(Cl)c(C(F)(F)F)c3)cc2)ccn1 [Sorafenib] : what is it?
Ans: 2.51

Q: Fill in: Euclidean distance of CC(CCc1ccc(O)cc1)NCC(O)c1ccc(O)cc1 (centres undefined) [Ractopamine HCl] is ___
Ans: 0.83

Q: Endpoint output: Euclidean distance of CCCNC(=O)NS(=O)(=O)c1ccc(Cl)cc1 [Chlorpropamide] . Value?
Ans: 0.601

Q: Value lookup for Euclidean distance; key = O=C(NC(Cc1cc(=O)[nH]c2ccccc12)C(=O)O)c1ccc(Cl)cc1 (centres undefined) [Rebamipide]
Ans: 1.17

Q: I have this compound here, O=C1c2c(O)ccc(O)c2C(=O)c2c(NCCNCCO)ccc(NCCNCCO)c21 [Mitoxantrone HCl] , and I need its recorded Euclidean distance.
Ans: 4.24

Q: Can you share its Euclidean distance? I mean this compound: Cc1[nH]c2ccccc2c1CCNC(=O)c1cccs1
Ans: 2.31

Q: What value of measured Euclidean distance is listed for Cc1nc2ccc(-n3ncc(C(=O)c4cc5ccccc5[nH]4)c3N)cc2[nH]1 ?
Ans: 2.28

Q: For CC(C)(C)c1nc(-c2cccc(NS(=O)(=O)c3c(F)cccc3F)c2F)c(-c2ccnc(N)n2)s1 , what is its reported Euclidean distance?
Ans: 1.16

Q: Fill blank: measured Euclidean distance of the compound CCOc1cc([C@@H](CS(C)(=O)=O)N2C(=O)c3cccc(NC(C)=O)c3C2=O)ccc1OC is ____.
Ans: 0.481

Q: Sample CC(C)[C@H]1C(=O)N[C@@H](CCCN=C(N)N)C(=O)NCC(=O)N[C@@H](CC(=O)O)C(=O)N[C@H](Cc2ccccc2)C(=O)N1C — what was its Euclidean distance?
Ans: 2.03

Q: Please report the recorded Euclidean distance for CCC(=O)N1CCN(c2ccc(-n3c(=O)ccc4cnc5ccc(-c6cnc7ccccc7c6)cc5c43)cc2C(F)(F)F)CC1 [Torin 1] .
Ans: 3.46

Q: Report Euclidean distance for c1ccc(-c2[nH]ncc2-c2ccnc3ccccc23)nc1 please.
Ans: 0.916

Q: Which value of Euclidean distance has been reported for CCCOc1ccc(S(=O)(=O)NCCC2CCCN2C)cc1-c1nc2c(CCC)nn(C)c2c(=O)[nH]1 (centres undefined) [Udenafil] in the records?
Ans: 1.12

Q: Name the reported Euclidean distance value associated with the compound CC(=O)N[C@@H](CS)C(=O)O [Acetylcysteine]
Ans: 1.28

Q: Reported Euclidean distance, compound CN1C(C(=O)Nc2ccccn2)=C(O)c2ccccc2S1(=O)=O [Piroxicam] : ____
Ans: 0.909

Q: // lookup Euclidean distance for c1cn2cc(-c3ccc4cn[nH]c4c3)nc(Nc3ccc(N4CCOCC4)cc3)c2n1 [Entospletinib (GS-9973)]
Ans: 2.15

Q: What value of measured Euclidean distance is listed for S=C(NCc1ccc2c(c1)OCO2)N1CCN(c2ncnc3c2oc2ccccc23)CC1 [Amuvatinib (MP-470)] ?
Ans: 1.72

Q: # input compound: Cc1ccccc1N1C(=O)c2cc(S(N)(=O)=O)c(Cl)cc2NC1C (centres undefined) [Metolazone] ; wanted: its Euclidean distance
Ans: 0.914

Q: Fill in the blank: the reported Euclidean distance of CC1(C)S[C@@H]2[C@H](NC(=O)C(c3ccccc3)S(=O)(=O)O)C(=O)N2[C@H]1C(=O)O (some centres undefined) [Sulbenicillin Sodium] is ____.
Ans: 0.447

Q: Fill in: Euclidean distance of COC(=O)[C@H]1[C@H]2C[C@@H]3c4[nH]c5cc(OC)ccc5c4CCN3C[C@H]2C[C@@H](OC(=O)c2cc(OC)c(OC)c(OC)c2)[C@@H]1OC [Reserpine] is ___
Ans: 1.58

Q: Fill blank: measured Euclidean distance of the compound C[C@@H]1C[C@H]2[C@@H]3C[C@H](F)C4=CC(=O)C=C[C@]4(C)[C@@]3(F)[C@@H](O)C[C@]2(C)[C@@]1(O)C(=O)CO [Flumethasone] is ____.
Ans: 2.47

Q: Bench note: what Euclidean distance did C[C@@H](O)[C@H]1C(=O)N2C(C(=O)O)=C(S[C@@H]3CN[C@H](CNS(N)(=O)=O)C3)[C@H](C)[C@H]12 [Doripenem] show?
Ans: 0.801

Q: Form field: reported Euclidean distance of CC(C)C[C@@H](C(=O)N[C@H](C(=O)OC1CCCC1)c1ccccc1)[C@H](O)C(=O)NO [Tosedostat (CHR2797)]
Ans: 1.35

Q: Data request, read-out Euclidean distance, for NS(=O)(=O)c1cc(C(=O)O)c(NCc2ccco2)cc1Cl [Furosemide]
Ans: 0.823

Q: I have this compound here, COc1cc(C(C)=O)ccc1OCCCN1CCC(c2noc3cc(F)ccc23)CC1 [Iloperidone] , and I need its recorded Euclidean distance.
Ans: 1.43

Q: For O=c1ccn([C@@H]2O[C@H](CO)[C@@H](O)[C@H]2O)c(=O)[nH]1 [Uridine] , what is its reported Euclidean distance?
Ans: 0.801

Q: Return reported Euclidean distance; argument: Cc1c(F)cc(C(=O)NC2CC2)cc1-c1ccc(C(=O)NCC(C)(C)C)cn1
Ans: 0.619

Q: Which measured Euclidean distance value corresponds to C=CCc1ccc(O)c(-c2ccc(O)c(CC=C)c2)c1 [Honokiol] ?
Ans: 0.732

Q: What value of Euclidean distance has been reported for the following compound? CO[C@@H](C)Cn1c(=O)n(C)c2cnc3ccc(-c4cncc(C(C)(C)O)c4)cc3c21
Ans: 4.06

Q: Which Euclidean distance value is on record for Cc1cc2c(F)c(Oc3ncnn4cc(OC[C@@H](C)OC(=O)[C@H](C)N)c(C)c34)ccc2[nH]1 ?
Ans: 1.25

Q: Please look up its Euclidean distance: CN(C)CCc1c[nH]c2ccc(CS(=O)(=O)N3CCCC3)cc12 [Almotriptan Malate]
Ans: 0.798

Q: What does the record list as Euclidean distance for NC(=O)c1ccc(OCCCN2CC3CCCC3C2)cc1 (centres undefined) ?
Ans: 1.16

Q: Name the recorded Euclidean distance for Cc1cc(Nc2ncnc3ccc(-c4ccc(CNCCS(C)(=O)=O)o4)cc23)ccc1Oc1ccn2ncnc2c1 [HER2-Inhibitor-1] .
Ans: 0.771

Q: So what does the record say about Euclidean distance for O=C(Nc1ccccc1)N1CCN(c2nc(-c3ccccc3)ns2)CC1 ?
Ans: 0.932
